Reported pIC50 values for a set of compounds
Target: Human recombinant MMP-2 (Homo sapiens)
Construct: made in house; host or cells: MMP-2-transfected p2AHT2 cells
Sequence (P08253 110-660): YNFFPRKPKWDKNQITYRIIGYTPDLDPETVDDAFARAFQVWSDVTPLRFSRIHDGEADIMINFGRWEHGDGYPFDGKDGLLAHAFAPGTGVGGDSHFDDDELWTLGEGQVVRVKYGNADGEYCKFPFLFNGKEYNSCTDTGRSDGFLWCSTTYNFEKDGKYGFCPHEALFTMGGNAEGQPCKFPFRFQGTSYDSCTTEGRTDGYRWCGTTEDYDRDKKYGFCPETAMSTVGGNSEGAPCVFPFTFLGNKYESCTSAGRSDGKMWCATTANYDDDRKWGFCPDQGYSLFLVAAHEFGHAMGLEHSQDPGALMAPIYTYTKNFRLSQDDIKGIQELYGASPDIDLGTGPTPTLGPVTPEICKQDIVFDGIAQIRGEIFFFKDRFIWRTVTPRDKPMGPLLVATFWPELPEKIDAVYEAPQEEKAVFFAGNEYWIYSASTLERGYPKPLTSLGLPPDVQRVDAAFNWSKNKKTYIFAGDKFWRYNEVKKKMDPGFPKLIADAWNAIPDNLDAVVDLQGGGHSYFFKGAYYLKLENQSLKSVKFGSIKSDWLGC
Test: In vitro MMP inhibition, IC50 determination (fluorogenic substrate I)
Type: biochemical
Details: value outside parentheses (Ki in parenthesis)
# pIC50 = -log10(concentration in molar units)

Recorded results for 2 compounds are shown here.
Cc1ccc(C(=O)NCCCOc2ccc(S(=O)(=O)C3(C(=O)NO)CCOCC3)cc2)cc1C | 5.96
O=C(CCCOc1ccc(S(=O)(=O)C2(C(=O)NO)CCOCC2)cc1)Nc1ccccc1O | 8.59

Switching to the query record.
So what's the measured pIC50 for this one? "O=C(NCCCOc1ccc(S(=O)(=O)C2(C(=O)NO)CCOCC2)cc1)c1ccccc1O"
6.68
